Hello, the source for this data is PubChem BioAssay AID1963964, in case you need it.

# Test system: 997726-040-R-J2-PDC tumor spheroids, viability
# assay method text: Anticancer human tumor 997726-040-R-J2-PDC patient-derived squamous cell lung carcinoma cell line growth inhibition [PI3K]
# condition notes: compound 3.16 µM; stronger effect = lower value; spheroids with HUVEC and MSC
Item-by-item account of viability, T/C

CC(C)NCC(C(=O)N1CCN(c2ncnc3c2C(C)CC3O)CC1)c1ccc(Cl)cc1 (stereo unspecified): 13.7% [middle of 4 runs]
CC1(C)CCC(CN2CCN(c3ccc(C(=O)NS(=O)(=O)c4ccc(NCC5CCOCC5)c([N+](=O)[O-])c4)c(Oc4cnc5[nH]ccc5c4)c3)CC2)=C(c2ccc(Cl)cc2)C1: 98.8% [middle of 4 runs]

# lookup: viability, T/C of CNC(=O)c1ccc(N2C(=S)N(c3ccc(C#N)c(C(F)(F)F)c3)C(=O)C2(C)C)cc1F
108% [middle of 4 runs]

# lookup: viability, T/C of C[C@@H](NC(=O)c1ncnc(N)c1Cl)c1ncc(C(=O)Nc2cc(C(F)(F)F)c(Cl)cn2)s1
105% [middle of 4 runs]

# lookup: viability, T/C of Cn1nccc1Nc1nccc(-c2ccn(C(CO)c3ccc(Cl)c(F)c3)c(=O)c2)n1 (stereo unspecified)
61.6% [middle of 4 runs]

# lookup: viability, T/C of C=CC(=O)N1CCN(c2nc(=O)n(-c3c(C)ccnc3C(C)C)c3nc(-c4c(O)cccc4F)c(F)cc23)C(C)C1 (stereo unspecified)
126% [middle of 4 runs]

# lookup: viability, T/C of CC(Cn1ccc(-c2ccc(C#N)c(Cl)c2)n1)NC(=O)c1cc(C(C)O)[nH]n1 (stereo unspecified)
107% [middle of 4 runs]

# lookup: viability, T/C of Cc1nc(NC(=O)N2CCCC2C(N)=O)sc1-c1ccnc(C(C)(C)C(F)(F)F)c1 (stereo unspecified)
30.8% [middle of 8 runs]

# lookup: viability, T/C of Cn1ncc(Cl)c1-c1cc(C(=O)NC(CN)Cc2cccc(F)c2)sc1Cl (stereo unspecified)
9.41% [middle of 4 runs]

# lookup: viability, T/C of CC(Nc1ncnc2nc[nH]c12)c1cc2cccc(Cl)c2c(=O)n1-c1ccccc1 (stereo unspecified)
70.8% [middle of 8 runs]

# lookup: viability, T/C of C#Cc1c(F)ccc2cc(O)cc(-c3ncc4c(N5CC6CCC(C5)N6)nc(OCC56CCCN5CC(F)C6)nc4c3F)c12 (stereo unspecified)
92.6% [middle of 4 runs]

---

# Tested on: 997726-040-R-J2-PDC tumor spheroids, viability
# assay method text: Anticancer human tumor 997726-040-R-J2-PDC cell line growth inhibition [PI3K];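 note: spheroids exposed to compounds for seven days before readout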
# condition notes: second compound 0.00316 µM; first compound 0.00316 µM; stronger effect = lower value; spheroids with HUVEC and MSC
Item-by-item account of viability, T/C

# lookup: viability, T/C of CC(C)n1nc(-c2ccc3oc(N)nc3c2)c2c(N)ncnc21 + COc1c(OCCCN2CCOCC2)ccc2c3n(c(=NC(=O)c4cnc(N)nc4)nc12)CCN3
70%

# lookup: viability, T/C of CCN1CCN(Cc2ccc(Nc3ncc(F)c(-c4cc(F)c5nc(C)n(C(C)C)c5c4)n3)nc2)CC1 + COc1c(OCCCN2CCOCC2)ccc2c3n(c(=NC(=O)c4cnc(N)nc4)nc12)CCN3
70%

# lookup: viability, T/C of CC(=O)c1c(C)c2cnc(Nc3ccc(N4CCNCC4)cn3)nc2n(C2CCCC2)c1=O + CC(Nc1ccc2c(c1)OCCn1cc(N3C(=O)OCC3C(F)F)nc1-2)C(N)=O
83.1%

# lookup: viability, T/C of Cn1ncnc1[C@H]1c2n[nH]c(=O)c3cc(F)cc(c23)N[C@@H]1c1ccc(F)cc1 + COc1c(OCCCN2CCOCC2)ccc2c3n(c(=NC(=O)c4cnc(N)nc4)nc12)CCN3
75.6%

---

Item-by-item account of viability, T/C
# System: 997726-040-R-J2-PDC tumor spheroids, viability
# assay method text: Anticancer human tumor 997726-040-R-J2-PDC cell line growth inhibition [PI3K];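 note: spheroids exposed to compounds for seven days before readout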
# condition notes: second compound 0.01 µM; first compound 0.316 µM; stronger effect = lower value; spheroids with HUVEC and MSC
Numbers only here, please. The scale is %.

Use these answered entries as a reference point.
CC1(C)CCC(Nc2ncc(C(F)(F)F)c(-c3c[nH]c4c(P(C)(C)=O)c(C#N)ccc34)n2)CN1 (stereo unspecified) + CC(Nc1ccc2c(c1)OCCn1cc(N3C(=O)OCC3C(F)F)nc1-2)C(N)=O: 28.8
C[C@@H](NC(=O)c1ncnc(N)c1Cl)c1ncc(C(=O)Nc2cc(C(F)(F)F)c(Cl)cn2)s1 + CC(Nc1ccc2c(c1)OCCn1cc(N3C(=O)OCC3C(F)F)nc1-2)C(N)=O: 93.5
CCCS(=O)(=O)Nc1ccc(F)c(C(=O)c2c[nH]c3ncc(-c4ccc(Cl)cc4)cc23)c1F + COc1c(OCCCN2CCOCC2)ccc2c3n(c(=NC(=O)c4cnc(N)nc4)nc12)CCN3: 69.6
C[C@@H](NC(=O)c1ncnc(N)c1Cl)c1ncc(C(=O)Nc2cc(C(F)(F)F)c(Cl)cn2)s1 + COc1c(OCCCN2CCOCC2)ccc2c3n(c(=NC(=O)c4cnc(N)nc4)nc12)CCN3: 66.7
Cn1ncc(Cl)c1-c1cc(C(=O)NC(CN)Cc2cccc(F)c2)sc1Cl (stereo unspecified) + CC(Nc1ccc2c(c1)OCCn1cc(N3C(=O)OCC3C(F)F)nc1-2)C(N)=O: 21.5

# next molecule below
# lookup: viability, T/C of C#Cc1c(F)ccc2cc(O)cc(-c3ncc4c(N5CC6CCC(C5)N6)nc(OCC56CCCN5CC(F)C6)nc4c3F)c12 (stereo unspecified) + CC(Nc1ccc2c(c1)OCCn1cc(N3C(=O)OCC3C(F)F)nc1-2)C(N)=O
79.2

---

# System: 997726-040-R-J2-PDC tumor spheroids, viability
# assay method text: Anticancer human tumor 997726-040-R-J2-PDC cell line growth inhibition [PI3K];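 note: spheroids exposed to compounds for seven days before readout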
# condition notes: second compound 0.0316 µM; first compound 0.0316 µM; stronger effect = lower value; spheroids with HUVEC and MSC
measure: viability, T/C

Use these answered entries as a reference point.
CNC(=O)c1ccc(N2C(=S)N(c3ccc(C#N)c(C(F)(F)F)c3)C(=O)C2(C)C)cc1F + CC(Nc1ccc2c(c1)OCCn1cc(N3C(=O)OCC3C(F)F)nc1-2)C(N)=O: 59.5%
CCCS(=O)(=O)Nc1ccc(F)c(C(=O)c2c[nH]c3ncc(-c4ccc(Cl)cc4)cc23)c1F + CC(Nc1ncnc2nc[nH]c12)c1cc2cccc(Cl)c2c(=O)n1-c1ccccc1: 104%
CC(C)n1nc(-c2ccc3oc(N)nc3c2)c2c(N)ncnc21 + CC(Nc1ccc2c(c1)OCCn1cc(N3C(=O)OCC3C(F)F)nc1-2)C(N)=O: 26.6%
CC(C)n1nc(-c2ccc3oc(N)nc3c2)c2c(N)ncnc21 + Cc1nc(NC(=O)N2CCCC2C(N)=O)sc1-c1ccnc(C(C)(C)C(F)(F)F)c1: 38.8%
C#Cc1c(F)ccc2cc(O)cc(-c3ncc4c(N5CC6CCC(C5)N6)nc(OCC56CCCN5CC(F)C6)nc4c3F)c12 (configuration not stated) + CC(Nc1ncnc2nc[nH]c12)c1cc2cccc(Cl)c2c(=O)n1-c1ccccc1: 90.6%

# lookup: viability, T/C of CC1(C)CCC(Nc2ncc(C(F)(F)F)c(-c3c[nH]c4c(P(C)(C)=O)c(C#N)ccc34)n2)CN1 (configuration not stated) + Cc1nc(NC(=O)N2CCCC2C(N)=O)sc1-c1ccnc(C(C)(C)C(F)(F)F)c1
36.8%

# lookup: viability, T/C of CC(=O)c1c(C)c2cnc(Nc3ccc(N4CCNCC4)cn3)nc2n(C2CCCC2)c1=O + CC(Nc1ccc2c(c1)OCCn1cc(N3C(=O)OCC3C(F)F)nc1-2)C(N)=O
52.5%

---

# Test system: 997726-040-R-J2-PDC tumor spheroids, viability
# assay method text: Anticancer human tumor 997726-040-R-J2-PDC cell line growth inhibition [PI3K]; active means viability on the fitted dose curve at most 10% of control; inactive means the rest;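 note: spheroids exposed to compounds for seven days before readout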
# condition notes: second compound 1 µM; first compound 3.16 µM; spheroids with HUVEC and MSC
Just give me one of these, please: active, inactive

Solved entries:
Cn1ncc(Cl)c1-c1cc(C(=O)NC(CN)Cc2cccc(F)c2)sc1Cl (stereo not given) + CC(Nc1ncnc2nc[nH]c12)c1cc2cccc(Cl)c2c(=O)n1-c1ccccc1: inactive
CC1(C)CCC(Nc2ncc(C(F)(F)F)c(-c3c[nH]c4c(P(C)(C)=O)c(C#N)ccc34)n2)CN1 (stereo not given) + CC(Nc1ccc2c(c1)OCCn1cc(N3C(=O)OCC3C(F)F)nc1-2)C(N)=O: active
CC1(C)CCC(CN2CCN(c3ccc(C(=O)NS(=O)(=O)c4ccc(NCC5CCOCC5)c([N+](=O)[O-])c4)c(Oc4cnc5[nH]ccc5c4)c3)CC2)=C(c2ccc(Cl)cc2)C1 + COc1c(OCCCN2CCOCC2)ccc2c3n(c(=NC(=O)c4cnc(N)nc4)nc12)CCN3: active
CC1(C)CCC(Nc2ncc(C(F)(F)F)c(-c3c[nH]c4c(P(C)(C)=O)c(C#N)ccc34)n2)CN1 (stereo not given) + COc1c(OCCCN2CCOCC2)ccc2c3n(c(=NC(=O)c4cnc(N)nc4)nc12)CCN3: active
CCCS(=O)(=O)Nc1ccc(F)c(C(=O)c2c[nH]c3ncc(-c4ccc(Cl)cc4)cc23)c1F + CC(Nc1ccc2c(c1)OCCn1cc(N3C(=O)OCC3C(F)F)nc1-2)C(N)=O: inactive
CC1(C)CCC(Nc2ncc(C(F)(F)F)c(-c3c[nH]c4c(P(C)(C)=O)c(C#N)ccc34)n2)CN1 (stereo not given) + Cc1nc(NC(=O)N2CCCC2C(N)=O)sc1-c1ccnc(C(C)(C)C(F)(F)F)c1: inactive
CNC(=O)c1ccc(N2C(=S)N(c3ccc(C#N)c(C(F)(F)F)c3)C(=O)C2(C)C)cc1F + Cc1nc(NC(=O)N2CCCC2C(N)=O)sc1-c1ccnc(C(C)(C)C(F)(F)F)c1: inactive
C[C@@H](NC(=O)c1ncnc(N)c1Cl)c1ncc(C(=O)Nc2cc(C(F)(F)F)c(Cl)cn2)s1 + Cc1nc(NC(=O)N2CCCC2C(N)=O)sc1-c1ccnc(C(C)(C)C(F)(F)F)c1: inactive
CCCS(=O)(=O)Nc1ccc(F)c(C(=O)c2c[nH]c3ncc(-c4ccc(Cl)cc4)cc23)c1F + CC(Nc1ncnc2nc[nH]c12)c1cc2cccc(Cl)c2c(=O)n1-c1ccccc1: inactive

Which result was noted for this molecule in the test: C#Cc1c(F)ccc2cc(O)cc(-c3ncc4c(N5CC6CCC(C5)N6)nc(OCC56CCCN5CC(F)C6)nc4c3F)c12 (stereo not given) + COc1c(OCCCN2CCOCC2)ccc2c3n(c(=NC(=O)c4cnc(N)nc4)nc12)CCN3
active
